assay.system: D(1A) dopamine receptor (Homo sapiens); note: assay procedure not described here
Sequence (P21728 whole entry): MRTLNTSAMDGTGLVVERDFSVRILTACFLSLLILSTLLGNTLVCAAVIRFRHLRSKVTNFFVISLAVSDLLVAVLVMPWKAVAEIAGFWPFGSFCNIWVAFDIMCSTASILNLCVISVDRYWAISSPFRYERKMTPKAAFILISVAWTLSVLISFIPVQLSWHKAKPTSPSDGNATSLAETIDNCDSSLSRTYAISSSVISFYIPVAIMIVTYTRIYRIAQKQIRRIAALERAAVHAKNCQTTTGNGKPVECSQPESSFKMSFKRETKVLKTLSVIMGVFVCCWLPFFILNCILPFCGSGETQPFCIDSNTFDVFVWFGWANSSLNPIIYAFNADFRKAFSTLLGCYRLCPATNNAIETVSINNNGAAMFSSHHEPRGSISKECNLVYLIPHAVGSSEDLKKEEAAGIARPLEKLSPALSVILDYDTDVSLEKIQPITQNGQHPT
Type: functional, cell-based
reported.metric: AC50

Asked: Which AC50 value belongs to CC(=O)N(CC(O)CO)c1c(I)c(C(=O)NCC(O)CO)c(I)c(C(=O)NCC(O)CO)c1I (configuration not stated) [IOHEXOL] ?
Given back: > 10 µM

Asked: # repeat for C1COC(NC(C2CC2)C2CC2)=N1 [RILMENIDINE]
Given back: > 10 µM

Asked: # repeat for CC(=O)OCC(=O)[C@@]12OC3(CCCC3)O[C@@H]1C[C@H]1[C@@H]3CCC4=CC(=O)C=C[C@]4(C)[C@@]3(F)[C@@H](O)C[C@@]12C [AMCINONIDE]
Given back: > 10 µM

Continuing:
Asked: Which AC50 value belongs to CC(C)Cc1ccc(CC(=O)O)cc1 [IBUFENAC] ?
Given back: > 30 µM
